target: human isoform of the Kv1.5 channels (Homo sapiens); construct: expressed in transfected cells; host or cells: HEK293; test: FLIPR thallium ion measurement on potassium channel Kv1.5; type: cell-based; conditions: HEK293 cells stably transfected with hKv1.5; compound 10 μM, 15 min at 37° C.; fluorescence normalised with 10 μM DPO
Decision: inhibition at 10 µM compared against 70%; not below it gives MET, below it gives NOT MET.

Past entries and their recorded results:
O=S(=O)(Nc1ccccc1OC1CCN(c2nc3ccc(Cl)cc3s2)CC1)c1ccccn1; NOT MET
Cc1ccc2nc(N3CCC(Oc4ccccc4NS(=O)(=O)c4ccccn4)CC3)oc2c1; NOT MET
Cc1cccc2sc(N3CCN(C(=O)c4ccccc4NS(=O)(=O)c4ccccn4)CC3)nc12; MET

Please indicate if the recorded inhibition at 10 µM for O=C(c1ccccc1NS(=O)(=O)c1ccccn1)N1CCN(c2nc3cc(C(F)(F)F)ccc3s2)CC1 meets or exceeds 70%.
MET

Hi, just wondering whether O=S(=O)(Nc1ccccc1OCC1CCN(c2nc3ccccc3s2)C1)c1ccccn1 (stereo not shown) shows inhibition at 10 µM of 70% or higher.
MET

----------
target: human isoform of the Kv1.5 channels (Homo sapiens); construct: expressed in transfected cells; host or cells: HEK293; assay: FLIPR thallium ion measurement on potassium channel Kv1.5; type: cell-based; details: HEK293 cells stably transfected with hKv1.5; compound 10 μM, 15 min at 37° C.; fluorescence normalised with 10 μM DPO
Where a name gives a salt, the structure may show the parent alone.
The entries below are paired with their reported inhibition at 10 µM.
Value expressed in %; do not type the unit.

O=S(=O)(Nc1ccccc1OC1CCN(c2nc3ccccc3s2)CC1)c1ccccn1; 90.2
O=C(c1ccccc1NS(=O)(=O)c1ccccn1)N1CCN(c2nc3ccc(F)cc3s2)CC1; 100
Cc1cccc(S(=O)(=O)Nc2cccc(C(=O)N3CCN(c4nc5ccc(Cl)cc5s4)CC3)c2)n1; 52.6
O=C(c1ccccc1NS(=O)(=O)c1cccc2cccnc12)N1CCN(c2nc3ccc(Br)cc3s2)CC1; 68
O=S(=O)(Nc1ccccc1OCC1CCN(c2nc3ccc(F)cc3s2)C1)c1ccccn1 (stereo not shown); 64.5
O=S(=O)(Nc1ccccc1OCC1CCN(c2nc3ccc(Cl)cc3s2)C1)c1ccccn1 (stereo not shown); 54.1
O=C(c1cccc(NS(=O)(=O)c2ccccn2)c1)N1CCN(c2nc3ccc(Cl)cc3o2)CC1; 58.9
O=C(c1cccc(NS(=O)(=O)c2ccccn2)c1)N1CCN(c2nc3ccc(Cl)cc3s2)CC1; 75.1

Give a short answer stating reported inhibition at 10 µM for O=C(c1ccccc1NS(=O)(=O)c1ccc(C(F)(F)F)cn1)N1CCN(c2nc3ccc(Cl)cc3s2)CC1 .
94.7

State its inhibition at 10 µM for this molecule: O=C(c1ccc(NS(=O)(=O)c2ccccn2)cc1)N1CCN(c2nc3ccc(Cl)cc3s2)CC1
70.2

Tell me inhibition at 10 µM reported for Cc1cccc(S(=O)(=O)Nc2ccccc2C(=O)N2CCN(c3nc4ccc(Br)cc4s3)CC2)n1 [Example 9, dihydrochloride]
62.8

Query inhibition at 10 µM for O=C(c1ccccc1NS(=O)(=O)c1ccccn1)N1CCN(c2nc3cccc(Cl)c3s2)CC1
91.8

Give recorded inhibition at 10 µM. O=C(c1ccccc1NS(=O)(=O)c1ccc(C(F)(F)F)cn1)N1CCN(c2nc3ccc(F)cc3o2)CC1
61.4

Determine its reported inhibition at 10 µM: CC(C)(C)c1ccc2oc(N3CCC(Oc4ccccc4NS(=O)(=O)c4ccccn4)CC3)nc2c1
51.8

State its inhibition at 10 µM for this molecule: O=C(c1ccccc1NS(=O)(=O)c1cccc2cccnc12)N1CCN(c2nc3ccc(Cl)cc3s2)CC1
91.5

Quote inhibition at 10 µM reported for O=S(=O)(Nc1ccccc1OC1CCN(c2nc3ccc(Cl)cc3o2)CC1)c1ccccn1 please.
58.8

----------
target: human isoform of the Kv1.5 channels (Homo sapiens, UniProt P22460); construct: expressed in transfected cells; host or cells: HEK293; test: FLIPR thallium ion measurement on potassium channel Kv1.5; type: cell-based; conditions: HEK293 cells stably transfected with hKv1.5; compound 10 μM, 15 min at 37° C.; fluorescence normalised with 10 μM DPO
Sequence (P22460 whole entry, canonical isoform): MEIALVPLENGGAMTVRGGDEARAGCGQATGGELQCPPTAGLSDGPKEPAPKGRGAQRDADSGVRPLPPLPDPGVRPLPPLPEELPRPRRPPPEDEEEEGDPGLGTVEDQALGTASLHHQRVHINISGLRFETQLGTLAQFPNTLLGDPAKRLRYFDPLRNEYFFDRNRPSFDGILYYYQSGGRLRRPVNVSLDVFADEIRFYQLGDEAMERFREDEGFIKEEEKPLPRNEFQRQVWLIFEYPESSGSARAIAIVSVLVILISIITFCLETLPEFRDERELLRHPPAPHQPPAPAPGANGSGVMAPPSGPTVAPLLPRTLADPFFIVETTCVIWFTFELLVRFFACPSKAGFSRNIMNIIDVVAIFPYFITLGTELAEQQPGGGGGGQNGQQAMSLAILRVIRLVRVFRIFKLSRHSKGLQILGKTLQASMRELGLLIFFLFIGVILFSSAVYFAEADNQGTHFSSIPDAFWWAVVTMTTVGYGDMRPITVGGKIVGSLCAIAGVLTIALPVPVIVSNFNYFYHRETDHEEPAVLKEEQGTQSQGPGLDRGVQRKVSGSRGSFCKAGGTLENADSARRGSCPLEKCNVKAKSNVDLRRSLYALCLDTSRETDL
Assign fulfilled whenever inhibition at 10 µM does not fall below 80%; assign not fulfilled whenever it does.

Cc1cccc2sc(N3CCCN(C(=O)c4ccccc4NS(=O)(=O)c4cccc5cccnc45)CC3)nc12; fulfilled

Would you say Cc1cccc2sc(N3CCC(COc4ccccc4NS(=O)(=O)c4ccccn4)C3)nc12 (centres unmarked) shows inhibition at 10 µM at minimum 80%?
not fulfilled

Say whether O=C(c1ccccc1NS(=O)(=O)c1cccc2cccnc12)N1CCN(c2nc3ccc(OC(F)(F)F)cc3s2)CC1 shows inhibition at 10 µM of 80% or more.
not fulfilled

Reported inhibition at 10 µM reaches at least 80% for O=S(=O)(Nc1ccccc1OC1CCN(c2nc3ccc(Br)cc3s2)CC1)c1ccccn1 ?
fulfilled

----------
biological target: human isoform of the Kv1.5 channels (Homo sapiens, UniProt P22460); construct: expressed in transfected cells; host or cells: HEK293; assay: FLIPR thallium ion measurement on potassium channel Kv1.5; format: cell-based; settings: HEK293 cells stably transfected with hKv1.5; compound 10 μM, 15 min at 37° C.; fluorescence normalised with 10 μM DPO
Where a name gives a salt, the structure may show the parent alone.
observed_property: inhibition at 10 µM (%)
Report only the number, with the unit % understood.

Worked examples follow.
O=S(=O)(Nc1ccccc1OC1CCN(c2nc3cc(Cl)ccc3o2)CC1)c1ccccn1; 81
O=C(c1ccccc1NS(=O)(=O)c1ccccn1)N1CCN(c2nc3ccc(Cl)cc3s2)CC1 [Example 4, hydrochloride]; 100
COc1cccc2sc(N3CCC(COc4ccccc4NS(=O)(=O)c4ccccn4)C3)nc12 (stereo not shown); 53.7

Supply measured inhibition at 10 µM of O=C(c1ccc(NS(=O)(=O)c2ccccn2)cc1)N1CCN(c2nc3ccc(F)cc3o2)CC1 in your reply.
100
